target_under_test: HLA B*1503 (Homo sapiens, UniProt P01889, A329T/A93T/A95T/C349S/D201E/D98Y/E187L/E204Q/K202T/N87E/Q94N/R155S/R180L/S121R/S35A/V306I/V36M/Y140S/Y91S)
test_details: biochemical
Where a SMILES comes first, the peptide text is derived from it.
Each entry below lists one item and its recorded pIC50 value.
Note on units: pIC50 is unitless, being -log10 of a concentration expressed in mol/L.

Field: example entries. Status: answers known.
{"molecule": "CSCC[C@H](NC(=O)[C@@H](N)Cc1c[nH]cn1)C(=O)N[C@@H](C)C(=O)N[C@@H](Cc1ccc(O)cc1)C(=O)N[C@@H](CO)C(=O)N[C@@H](Cc1ccccc1)C(=O)N[C@@H](CCC(N)=O)C(=O)N[C@H](C(=O)N[C@@H](Cc1ccccc1)C(=O)O)[C@@H](C)O [3102.1331] (H-HMAYSFQTF-OH)", "pIC50": 9.55}
{"molecule": "CC[C@H](C)[C@H](NC(=O)CNC(=O)[C@H](C)NC(=O)[C@H](Cc1ccc(O)cc1)NC(=O)[C@H](CCCCN)NC(=O)[C@@H](N)CO)C(=O)N[C@@H](CC(N)=O)C(=O)N[C@H](C(=O)N[C@@H](CC(C)C)C(=O)O)[C@@H](C)CC [3102.1077] (H-SKYAGINIL-OH)", "pIC50": 9.57}

Exercise: Supply reported pIC50 belonging to this molecule: CC[C@H](C)[C@H](N)C(=O)N[C@@H](CCSC)C(=O)N[C@H](C(=O)N[C@@H](CO)C(=O)NCC(=O)N[C@H](C(=O)N[C@H](C(=O)N1CCC[C@H]1C(=O)N[C@@H](Cc1ccccc1)C(=O)O)[C@@H](C)CC)C(C)C)[C@@H](C)O [3102.1305] (H-IMTSGVIPF-OH)
Solution: 9.66

Exercise: Supply reported pIC50 belonging to this molecule: CC[C@H](C)[C@H](NC(=O)[C@H](CCSC)NC(=O)[C@H](CC(C)C)NC(=O)[C@H](CCSC)NC(=O)[C@@H](N)CCSC)C(=O)NCC(=O)N[C@@H](CC(N)=O)C(=O)N[C@@H](Cc1ccc(O)cc1)C(=O)N[C@@H](Cc1ccccc1)C(=O)O [3102.1301] (H-MMLMIGNYF-OH)
Solution: 9.70
